# key: entry, value: TGI
- Tested on: A549 NSCLC
- experiment_notes: NCI tumour cell line growth inhibition, 48 h
readout_label: TGI

• COc1cc(OC)cc(Oc2nc3ccc(C(F)(F)F)cc3nc2-c2ccccc2)c1 = > 100 µM
• CCOC(=O)c1cn2c(n1)sc1cc([N+](=O)[O-])ccc12 = > 100 µM
• CCOc1cc(NC(C)=O)ccc1C(=O)NN1C(=O)/C(=C/c2ccc(Cl)cc2)N=C1c1ccccc1 = > 100 µM
• COc1ccc(C2OC2C(=O)C23CC4CC(CC(C4)C2)C3)cc1 (configuration not stated) = > 100 µM
• c1c[nH]c(CN2CCN(Cc3ncc[nH]3)CC2)n1 = > 100 µM
• O=C1C(CN2CCCC2)CCC1CN1CCCC1 (configuration not stated) = > 100 µM
• CSc1cnc2ccccc2c1Sc1cn(C)c2ccccc2c1=O = > 100 µM
• CC(=O)O[C@H]1CC[C@@]2(C)C(=CC[C@@H]3[C@@H]2CC[C@]2(C)C(=O)/C(=C\c4ccccc4)C[C@@H]32)C1 = > 100 µM
• C=C1C(=O)O[C@H]2[C@H]1CC/C(COC(=O)NCc1ccc(Cn3c(=O)sn(CCCI)c3=O)cc1)=C\CC[C@@]1(C)O[C@@H]21 = 25.3 µM
• CCCCCCCCCCCCNC(=O)N[C@H](C(=O)N[C@H]1/C=C/OCCNC(=O)/C=C/[C@H](C(C)C)NC1=O)C(C)C = > 100 µM
• Cc1ccc(Nc2nc3ccccc3nc2NS(=O)(=O)c2ccc(N)cc2)cc1 = > 100 µM
• O=c1[nH]c2c(ccc3cnccc32)c2c1CCC2 = > 53.5 µM
• Nc1cc2c(C3OC(CO)C(O)C3O)[nH]nc2c(=S)[nH]1 (configuration not stated) = > 100 µM
• CC1SC(c2ccc(OCc3ccccc3)cc2)N(NC(=O)C(O)(c2ccccc2)c2ccccc2)C1=O (configuration not stated) = 20.8 µM
• Cc1c(S(=O)(=O)/N=C(\NO)Nc2ccc(Cl)cc2)sc2ccc(Cl)cc12 = 33.8 µM
• CC(C)CCNC(=O)c1ccc(CNC(=O)/C=C/c2ccc3c(c2)-c2ccccc2C3)cc1 = > 100 µM
• COc1cc(/C=C2\C(=O)Nc3ccc(O)cc32)cc(OC)c1OC = 88 µM
